assay: Plasma concentrations after single oral administration of oxodipine forms to 6 healthy subjects; conditions: human, 20 mg
recorded-endpoint: concentration at 2 h (ng/mL)
Give bare numbers, in ng/mL.

**Query** Note down concentration at 2 h recorded for CCOC(=O)C1=C(C)NC(C)=C(C(=O)OC)C1c1cccc2c1OCO2 (stereo not shown) [Poudre 20mg]
**Result** 6.2

====

experiment: Plasma concentrations after single oral administration of oxodipine forms to 6 healthy subjects; details: human, 20 mg
recorded-endpoint: concentration at 0.5 h (ng/mL)
One number for each entry, in ng/mL.

**Query** Note down concentration at 0.5 h recorded for CCOC(=O)C1=C(C)NC(C)=C(C(=O)OC)C1c1cccc2c1OCO2 (stereo not shown) [Poudre 20mg]
**Result** 2.7

====

assay: Plasma concentrations after single oral administration of oxodipine forms to 6 healthy subjects; conditions: human, 20 mg
recorded-endpoint: concentration at 4 h (ng/mL)
One number for each entry, in ng/mL.

**Query** Note down concentration at 4 h recorded for CCOC(=O)C1=C(C)NC(C)=C(C(=O)OC)C1c1cccc2c1OCO2 (stereo not shown) [Poudre 20mg]
**Result** 4

====

assay: Plasma concentrations after single oral administration of oxodipine forms to 6 healthy subjects; conditions: human, 20 mg
recorded-endpoint: concentration at 3 h (ng/mL)
Numbers only, in ng/mL.

**Query** Note down concentration at 3 h recorded for CCOC(=O)C1=C(C)NC(C)=C(C(=O)OC)C1c1cccc2c1OCO2 (stereo not shown) [Poudre 20mg]
**Result** 5.1

====

assay: Plasma concentrations after single oral administration of oxodipine forms to 6 healthy subjects; conditions: human, 20 mg
recorded-endpoint: concentration at 6 h (ng/mL)
One number for each entry, in ng/mL.

**Query** Note down concentration at 6 h recorded for CCOC(=O)C1=C(C)NC(C)=C(C(=O)OC)C1c1cccc2c1OCO2 (stereo not shown) [Poudre 20mg]
**Result** 2.4

====

assay: Plasma concentrations after single oral administration of oxodipine forms to 6 healthy subjects; conditions: human, 20 mg
recorded-endpoint: concentration at 8 h (ng/mL)
Answers are plain numbers, in ng/mL.

**Query** Note down concentration at 8 h recorded for CCOC(=O)C1=C(C)NC(C)=C(C(=O)OC)C1c1cccc2c1OCO2 (stereo not shown) [Poudre 20mg]
**Result** 1.6

====

assay: Plasma concentrations after single oral administration of oxodipine forms to 6 healthy subjects; settings: human, 20 mg
recorded-endpoint: concentration at 12 h (ng/mL)
One number for each entry, in ng/mL.

**Query** Note down concentration at 12 h recorded for CCOC(=O)C1=C(C)NC(C)=C(C(=O)OC)C1c1cccc2c1OCO2 (stereo not shown) [Poudre 20mg]
**Result** 1.2

====

test: Plasma concentrations after single oral administration of oxodipine forms to 6 healthy subjects; conditions: human, 20 mg
recorded-endpoint: concentration at 1.25 h (ng/mL)
Give bare numbers, in ng/mL.

**Query** Note down concentration at 1.25 h recorded for CCOC(=O)C1=C(C)NC(C)=C(C(=O)OC)C1c1cccc2c1OCO2 (stereo not shown) [Poudre 20mg]
**Result** 6.8

====

test: Plasma concentrations after single oral administration of oxodipine forms to 6 healthy subjects; settings: human, 20 mg
recorded-endpoint: concentration at 24 h

**Query** Note down concentration at 24 h recorded for CCOC(=O)C1=C(C)NC(C)=C(C(=O)OC)C1c1cccc2c1OCO2 (stereo not shown) [Poudre 20mg]
**Result** 1.2 ng/mL

====

assay: Plasma concentrations after single oral administration of oxodipine forms to 6 healthy subjects; conditions: human, 20 mg
recorded-endpoint: concentration at 10 h (ng/mL)
One number for each entry, in ng/mL.

**Query** Note down concentration at 10 h recorded for CCOC(=O)C1=C(C)NC(C)=C(C(=O)OC)C1c1cccc2c1OCO2 (stereo not shown) [Poudre 20mg]
**Result** 1.4

====

assay: Plasma concentrations after single oral administration of oxodipine forms to 6 healthy subjects; conditions: human, 20 mg
recorded-endpoint: concentration at 1 h (ng/mL)
Give bare numbers, in ng/mL.

**Query** Note down concentration at 1 h recorded for CCOC(=O)C1=C(C)NC(C)=C(C(=O)OC)C1c1cccc2c1OCO2 (stereo not shown) [Poudre 20mg]
**Result** 6

====

assay: Plasma concentrations after single oral administration of oxodipine forms to 6 healthy subjects; settings: human, 20 mg
recorded-endpoint: concentration at 1.5 h
Write down the value, and be sure its unit follows.

**Query** Note down concentration at 1.5 h recorded for CCOC(=O)C1=C(C)NC(C)=C(C(=O)OC)C1c1cccc2c1OCO2 (stereo not shown) [Poudre 20mg]
**Result** 6.5 ng/mL

====

experiment: Plasma concentrations after single oral administration of oxodipine forms to 6 healthy subjects; details: human, 20 mg
recorded-endpoint: concentration at 14 h (ng/mL)
One number for each entry, in ng/mL.

**Query** Note down concentration at 14 h recorded for CCOC(=O)C1=C(C)NC(C)=C(C(=O)OC)C1c1cccc2c1OCO2 (stereo not shown) [Poudre 20mg]
**Result** 1
